Target: UniProt P16109
Sequence (P16109 whole entry V640L): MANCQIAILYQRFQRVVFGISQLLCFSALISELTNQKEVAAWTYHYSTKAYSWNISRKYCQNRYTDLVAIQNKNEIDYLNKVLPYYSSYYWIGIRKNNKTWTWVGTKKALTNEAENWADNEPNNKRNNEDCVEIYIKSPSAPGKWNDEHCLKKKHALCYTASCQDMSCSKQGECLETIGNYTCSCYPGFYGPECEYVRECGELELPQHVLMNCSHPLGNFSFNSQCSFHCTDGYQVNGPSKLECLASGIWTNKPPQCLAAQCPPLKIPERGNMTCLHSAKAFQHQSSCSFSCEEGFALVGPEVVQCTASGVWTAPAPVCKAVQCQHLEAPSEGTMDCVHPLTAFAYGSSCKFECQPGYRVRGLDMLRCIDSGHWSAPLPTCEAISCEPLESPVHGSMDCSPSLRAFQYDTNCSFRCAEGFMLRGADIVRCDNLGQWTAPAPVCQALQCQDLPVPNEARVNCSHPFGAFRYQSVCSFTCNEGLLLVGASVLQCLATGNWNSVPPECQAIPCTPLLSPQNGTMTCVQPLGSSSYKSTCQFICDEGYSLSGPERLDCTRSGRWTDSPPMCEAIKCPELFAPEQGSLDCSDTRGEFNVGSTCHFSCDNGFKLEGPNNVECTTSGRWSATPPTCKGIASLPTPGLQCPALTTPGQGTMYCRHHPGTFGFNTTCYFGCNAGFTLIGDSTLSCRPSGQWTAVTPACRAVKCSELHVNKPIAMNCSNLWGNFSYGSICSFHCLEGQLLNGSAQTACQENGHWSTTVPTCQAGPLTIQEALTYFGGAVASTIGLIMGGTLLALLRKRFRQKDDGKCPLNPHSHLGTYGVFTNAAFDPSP
Test: Inhibition of P-selectin aggregation in platelet surface (unknown origin)
Binary label based on IC50 with cut-off 3000 nM: below gives YES, not below gives NO.

Query :: Report whether reported IC50 is lower than 3000 nM (strictly) for COc1ccccc1CNc1ncc(C(=O)NCCCN2CCCC2=O)c(NC2CCCC2)n1
Result :: NO

Query :: Just wondering, is IC50 of O[C@@H]1COC[C@H]1Nc1nc(Nc2cc(Cl)cc(Cl)c2)ncc1-c1ccc(F)cc1 below 3000 nM?
Result :: NO

Query :: Quick check: does COc1ccccc1CNc1ncc(C(=O)NCCCCN(C)C)c(NC2CCCC2)n1 have IC50 under 3000 nM?
Result :: NO

Query :: Does this compound meet the criterion IC50 < 3000 nM? CN1CCC(NC(=O)c2cnc(NCc3cc(Cl)ccc3Cl)nc2NC2CCCC2)CC1
Result :: YES

Query :: Dear colleague, could you confirm whether IC50 of O=C(NCCCN1CCCC1=O)c1cnc(NCc2cc(Cl)ccc2Cl)nc1NC1CCCC1 falls below 3000 nM? Thanks.
Result :: NO

Query :: Regarding CC[C@@H](CO)Nc1nc(Nc2cc(Cl)cc(Cl)c2)ncc1C(=O)NC1CCN(C)CC1 , kindly confirm whether its IC50 is beneath 3000 nM.
Result :: YES

Query :: Check if IC50 falls below 3000 nM for CN1CCC(NC(=O)c2cnc(Nc3cc(Cl)cc(Cl)c3)nc2NC2CCC(N(C)C)CC2)CC1 (centres undefined) .
Result :: YES

Query :: A record lists Cc1cc(-c2cnc(Nc3cc(Cl)cc(Cl)c3)nc2NC2CCNCC2)on1 . Is its IC50 below 3000 nM?
Result :: YES
